Biological target: T1, bovine serum albumin (bovine, UniProt P02769 25-607)
T1 construct: also called BSA; negative control protein
T1 sequence (P02769 25-607 limits assumed): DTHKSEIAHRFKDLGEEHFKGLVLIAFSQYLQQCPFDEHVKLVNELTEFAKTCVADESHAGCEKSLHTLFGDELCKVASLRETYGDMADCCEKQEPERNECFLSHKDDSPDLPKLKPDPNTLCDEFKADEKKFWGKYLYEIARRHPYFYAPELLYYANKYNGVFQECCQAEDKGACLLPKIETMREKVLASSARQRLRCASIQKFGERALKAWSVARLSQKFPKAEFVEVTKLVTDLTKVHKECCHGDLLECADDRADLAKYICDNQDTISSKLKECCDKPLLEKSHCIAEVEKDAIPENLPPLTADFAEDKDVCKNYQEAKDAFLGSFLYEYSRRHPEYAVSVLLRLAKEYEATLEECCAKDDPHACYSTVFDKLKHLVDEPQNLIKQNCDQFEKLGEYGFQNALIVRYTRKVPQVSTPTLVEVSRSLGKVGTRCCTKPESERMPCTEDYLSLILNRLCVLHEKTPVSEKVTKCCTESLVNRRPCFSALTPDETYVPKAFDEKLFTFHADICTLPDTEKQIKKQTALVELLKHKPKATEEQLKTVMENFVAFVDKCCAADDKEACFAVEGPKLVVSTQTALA
Assay: ELISA at one antibody amount, wells coated with antigen-DDR2 or BSA, OD450
PROPERTY_NAME: binding result

Worked set:
• anti-DDR2 nano-antibody 1A1 (VHH, Expressed in E. coli BL21(DE3); also called 1A1-VHH) VHH: EVQLVESGGGLVQPGGSLRLSCAASGRIFSINVMGWFRQAPGKGRELVAAINTRGGSTYYPDSVEGRFTISRDNAKRMVYLQMNSLRAEDTAVYYCAASRKGYPSTRSDPYDYWGQGTQVTVSS = no binding
• anti-DDR2 nano-antibody 1A5 (VHH, also called 1A5-VHH) VHH: EVQLVESGGGLVQPGGSLRLSCAASGITLSLYIMGWFRQAPGKGRELVAAISRTGGSTYYPDSVEGRFTISRDNAKRMVYLQMNSLRAEDTAVYYCAADFYGNATLGYNYWGQGTQVTVSS = no binding
• anti-DDR2 nano-antibody 1B3 (VHH, also called 1B3-VHH) VHH: EVQLVESGGGLVQPGGSLRLSCAASGDTFSYYVMGWFRQAPGKGRELVAAISRTGGSTYYPDSVEGRFTISRDNAKRMVYLQMNSLRAEDTAVYYCAADPYISGTLGYNYWGQGTQVTVSS = no binding
• anti-DDR2 nano-antibody 1A12 (VHH, also called 1A12-VHH; DDR2 antibody 1A12) VHH: EVQLVESGGGLVQPGGSLRLSCAASGYILSPNVMGWFRQAPGKGRELVAAISWGDGRTYYPDSVEGRFTISRDNAKRMVYLQMNSLRAEDTAVYYCAASRKGYPSTRSDPYNYWGQGTQVTVSS = no binding

Could you now look at the following binder, please?
Look up binding result: anti-DDR2 nano-antibody 1B2 (VHH, also called 1B2-VHH) VHH: EVQLVESGGGLVQPGGSLRLSCAASGYIFSIYAMGWFRQAPGKGRELVARISWGDGSTWYPDSVEGRFTISRDNAKRMVYLQMNSLRAEDTAVYYCAAAIKGRGVVTQLGYNYWGQGTQVTVSS
no binding
